Source of measurements: patent US8524911B2

# Protocol Notes: Microsomal stability assay, RLM
# Assay type: in vitro ADME
# Stated Conditions: male, Sprague Dawley, pooled rat liver microsomes, pH 7.4; 3 μM compound, 0.5 mg/ml rat liver microsomes, 37° C., 2 mM NADPH; read-out: RLM t1/2
Entries and their half-life at 3 µM values follow.

These recorded examples may help you get a feel for the data.
C=CCNc1nnc(-c2ccncc2Nc2ccc(Br)cc2C)o1 [Example 129] = 0.517 to 2 h
Cc1cc(I)ccc1Nc1cnccc1C(=O)NS(C)(=O)=O [Example 123] = 0.0167 to 0.5 h
CNCCNc1nnc(-c2ccncc2Nc2ccc(Br)cc2F)o1 [Example 128] = 0.517 to 2 h
Cc1cc(I)ccc1Nc1cnccc1C(=O)NOC[C@H](O)CO [Example 9] = > 2 h
CCONC(=O)c1ccncc1Nc1ccc(Br)cc1C [Example 4] = 0.517 to 2 h

--- query ---
Any idea what its half-life at 3 µM is? The compound is OCCNc1nnc(-c2ccncc2Nc2ccc(Br)cc2F)o1 [Example 127]
> 2 h

* * *

# System: human melanoma A375 cells
# Protocol Notes: Tumor cell proliferation assay (ATP Lite), A375
# Format: cell-based
# Stated Conditions: A-375, 96 h, 4 days
Entries and their IC50 values follow.

These recorded examples may help you get a feel for the data.
O=C(NCCN1CCOCC1)c1cc(Br)ncc1Nc1ccc(I)cc1F [Example 88] = 3 to 10 µM
CCNC(=O)c1ccncc1Nc1ccc(I)cc1F [Example 18] = ≤ 3 µM
CC1(C)OC[C@@H](CONC(=O)c2ccncc2Nc2ccc(I)cc2F)O1 [Example 63] = ≤ 3 µM
O=C(NOCc1ccccc1)c1ccncc1Nc1ccc(I)cc1Cl [Example 81] = ≤ 3 µM
C#Cc1ccc(Nc2cnccc2C(=O)NOC[C@H](O)CO)c(Cl)c1 [Example 54] = 3 to 10 µM

--- query ---
Any idea what its IC50 is? The molecule is NC(=O)c1ccnc(Cl)c1Nc1ccc(I)cc1F [Example 31]
≤ 3 µM

* * *

# Protocol Notes: Microsomal stability assay, MLM
# Type: in vitro ADME
# Stated Conditions: pH 7.4; 3 μM compound, 0.5 mg/ml mouse liver microsomes, 37° C., 2 mM NADPH; read-out: MLM t1/2
Recorded Endpoint: half-life at 3 µM

These recorded examples may help you get a feel for the data.
Cc1cc(I)ccc1Nc1cnccc1C(=O)NOC[C@H](O)CO = > 2 h
C=CCNc1nnc(-c2ccncc2Nc2ccc(Br)cc2C)o1 = > 2 h

--- query ---
Any idea what its half-life at 3 µM is? The compound is `OCCNc1nnc(-c2ccncc2Nc2ccc(Br)cc2F)o1`
0.0167 to 0.5 h

* * *

# System: human melanoma A375 cells
# Protocol Notes: Tumor cell proliferation assay (ATP Lite), A375
# Format: cell-based
# Stated Conditions: A-375, 96 h, 4 days
Counter-ions that a name gives are not always drawn.
Recorded Endpoint: IC50

These recorded examples may help you get a feel for the data.
COCCNC(=O)c1ccncc1Nc1ccc(I)cc1F = ≤ 3 µM
Cc1cccc(NNC(=O)c2ccncc2Nc2ccc(I)cc2F)c1 = ≤ 3 µM
C[C@@H](O)CNC(=O)c1ccncc1Nc1ccc(I)cc1F = ≤ 3 µM
O=C(NC1CCC1)c1ccncc1Nc1ccc(I)cc1F = ≤ 3 µM
O=C(NCCCO)c1cc(Br)ncc1Nc1ccc(I)cc1F = ≤ 3 µM
O=C(NCCN1CCCCC1)c1ccncc1Nc1ccc(I)cc1F = ≤ 3 µM
NC1CCN(C(=O)c2ccncc2Nc2ccc(I)cc2F)CC1 [Example 44, hydrochloride] = ≤ 3 µM
O=C(NNc1ccccn1)c1ccncc1Nc1ccc(I)cc1F = ≤ 3 µM

Enter reported IC50 observed with human melanoma A375 cells for O=C(NCC(O)COc1ccccc1)c1ccncc1Nc1ccc(I)cc1F (stereo not shown)
≤ 3 µM

Enter reported IC50 observed with human melanoma A375 cells for `O=C(NCCCN1CCOCC1)c1ccncc1Nc1ccc(I)cc1F`
≤ 3 µM
